Ref: the supplement of paper PMC7877785

# protocolNotes: self-splicing fitness, log relative to wild type (ln ratio); higher = more splicing; Tetrahymena group I intron in knt gene, E. coli kanamycin selection, DiMSum; sequences stand for … in CUCUCU…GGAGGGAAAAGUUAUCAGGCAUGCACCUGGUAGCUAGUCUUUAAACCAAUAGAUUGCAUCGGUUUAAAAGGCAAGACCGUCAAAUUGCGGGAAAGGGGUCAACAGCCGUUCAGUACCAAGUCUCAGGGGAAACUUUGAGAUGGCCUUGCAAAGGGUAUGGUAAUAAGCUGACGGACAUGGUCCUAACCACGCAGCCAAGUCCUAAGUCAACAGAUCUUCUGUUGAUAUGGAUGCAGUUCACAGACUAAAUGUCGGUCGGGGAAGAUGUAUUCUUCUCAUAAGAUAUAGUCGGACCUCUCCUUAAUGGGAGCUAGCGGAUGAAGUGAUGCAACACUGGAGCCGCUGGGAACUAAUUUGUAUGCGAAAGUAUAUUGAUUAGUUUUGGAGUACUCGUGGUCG;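 further: selection with 25 µg/mL kanamycin versus none on LB agar overnight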
# reportedConditions: 30 °C
Use -2 as the dividing line for self-splicing fitness (ln), with the line itself on the yes (1) side and lower values as no (0).

Study these solved cases before continuing.
| macromoleculeSequence | classification |
| --- | --- |
| AGUAAGCAAUAUUACGCACA | yes (1) |
| UCUAAGCAAUAUUACGGACC | yes (1) |

Lookup: Is reported self-splicing fitness (ln) greater than or equal to -2 here: CACUAGCAAUAUUACGCCGG
Found: yes (1)

Lookup: Proceed to UCGUAGCAAUAUUACGCGCA
Found: yes (1)

Lookup: Could you do the same for AAAGAGCAAUAUUACGUAUG , please?
Found: no (0)

###

Task for the reader: assign each of the following sequences its reported self-splicing fitness (ln).
# protocolNotes: self-splicing fitness, log relative to wild type (ln ratio); higher = more splicing; Tetrahymena group I intron in knt gene, E. coli kanamycin selection, DiMSum; sequences stand for … in CUCUCU…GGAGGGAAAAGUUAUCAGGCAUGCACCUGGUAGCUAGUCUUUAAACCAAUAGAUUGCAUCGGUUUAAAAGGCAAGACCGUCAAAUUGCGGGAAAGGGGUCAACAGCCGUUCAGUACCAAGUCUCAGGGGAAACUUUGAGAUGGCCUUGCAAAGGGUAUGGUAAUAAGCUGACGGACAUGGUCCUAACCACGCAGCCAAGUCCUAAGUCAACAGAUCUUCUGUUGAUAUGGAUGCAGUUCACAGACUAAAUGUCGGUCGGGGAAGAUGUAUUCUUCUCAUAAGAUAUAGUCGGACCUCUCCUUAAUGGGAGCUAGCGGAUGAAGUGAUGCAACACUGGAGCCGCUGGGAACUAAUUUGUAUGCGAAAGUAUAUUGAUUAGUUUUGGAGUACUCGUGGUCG
# reportedConditions: 30 °C
One number for each entry.

// worked examples, self-splicing fitness (ln) included
| macromoleculeSequence | readoutValue |
| --- | --- |
| ACGGAGCAAUAUUACGACGG | -1.46 |
| UAUGAGCAAUAUUACGGCAU | -2.94 |
| CGAAAGCAAUAUUACGUGAC | -3.45 |
| UGCGAGCAAUAUUACGGAUA | -2.36 |

Please go through the list and note self-splicing fitness (ln) for each sequence.
1. ACAAAGCAAUAUUACGCGUG
2. AUACAGCAAUAUUACGUCUA
3. UGGCAGCAAUAUUACGGUAU
4. ACAUAGCAAUAUUACGUGGA
5. CAAAAGCAAUAUUACGCGAC
6. UAGGAGCAAUAUUACGUCAG

Found:
-1.5
-0.606
-3.72
-3.3
-3.52
-4.59

Each sequence below has a reported value. Please supply its self-splicing fitness (ln).
1. UGUCAGCAAUAUUACGUUAG
2. AAAUAGCAAUAUUACGACCU
3. AAGCAGCAAUAUUACGGCAC
4. CUUUAGCAAUAUUACGGCGC

Found:
1: -1.07; 2: -0.0682; 3: -0.574; 4: -2.73

For the 2 sequences below, give their self-splicing fitness (ln) values.
1. UGACAGCAAUAUUACGCUGA
2. GGUCAGCAAUAUUACGAAUG

Found:
1. -2.69
2. -0.0371
